assay: Cytotoxicity against human MCF10A cells assessed as growth inhibition at 10 ug/ml after 72 hrs by MTT assay; type: cell-based, MCF-10A; conditions: read-out: GI
MEASUREMENT LABEL: inhibition at 72 h, 10 ug/ml (%)
Numbers only; they are read as %.

Solved entries:
State the recorded inhibition at 72 h, 10 ug/ml for this entry: CC(=O)Oc1ccc(COP(=O)(OCc2ccc(OC(C)=O)cc2)O[C@H]2[C@@H]3OC(C)(C)O[C@H]3[C@H](OP(=O)(OCc3ccc(OC(C)=O)cc3)OCc3ccc(OC(C)=O)cc3)[C@H]3OC(C)(C)O[C@H]32)cc1
-10.7

Repeat for the following compound: CC(=O)Oc1ccc(COP(=O)(OCc2ccc(OC(C)=O)cc2)O[C@@H]2[C@@H](OCc3ccccc3)[C@H](OCc3ccccc3)[C@@H](OCc3ccccc3)[C@H](OCc3ccccc3)[C@@H]2OP(=O)(OCc2ccc(OC(C)=O)cc2)OCc2ccc(OC(C)=O)cc2)cc1
42.3

Continuing:
State the recorded inhibition at 72 h, 10 ug/ml for this entry: CC(=O)Oc1ccc(COP(=O)(OCc2ccc(OC(C)=O)cc2)OC2C3OCOC(C3OCc3ccccc3)C(OCc3ccccc3)C2OP(=O)(OCc2ccc(OC(C)=O)cc2)OCc2ccc(OC(C)=O)cc2)cc1 (stereo not drawn)
90.4

====

Some molecules, each annotated with its measured inhibition at 72 h, 10 ug/ml.
experiment: Cytotoxicity against human MCF10A cells assessed as growth inhibition at 10 ug/ml after 72 hrs by MTT assay; format: cell-based, MCF-10A; details: read-out: GI
Note: unit % is implicit; provide only the numeric part.

Solved cases (3 shown):
If you can, please state the reported inhibition at 72 h, 10 ug/ml value of CC(=O)Oc1ccc(COP(=O)(OCc2ccc(OC(C)=O)cc2)O[C@H]2[C@H](OP(=O)(OCc3ccc(OC(C)=O)cc3)OCc3ccc(OC(C)=O)cc3)[C@@H](OCc3ccccc3)[C@H](OCc3ccccc3)[C@H](OCc3ccccc3)[C@@H]2OP(=O)(OCc2ccc(OC(C)=O)cc2)OCc2ccc(OC(C)=O)cc2)cc1 .
45.1

Same thing, different molecule: CC(=O)Oc1ccc(COP(=O)(OCc2ccc(OC(C)=O)cc2)OC2C(OCc3ccccc3)C3OC(C)OC(C3OCc3ccccc3)C2OCc2ccccc2)cc1 (centres undefined)
98.1

Try CC(=O)Oc1ccc(COP(=O)(OCc2ccc(OC(C)=O)cc2)O[C@@H]2[C@@H](OCc3ccccc3)[C@@H](OCc3ccccc3)[C@@H](OP(=O)(OCc3ccc(OC(C)=O)cc3)OCc3ccc(OC(C)=O)cc3)[C@H](OP(=O)(OCc3ccc(OC(C)=O)cc3)OCc3ccc(OC(C)=O)cc3)[C@H]2OCc2ccccc2)cc1 next.
9.2

Okay, next one:
Look at this molecule and give its reported inhibition at 72 h, 10 ug/ml. CC(=O)Oc1ccc(COP(=O)(OCc2ccc(OC(C)=O)cc2)OC2C(OCc3ccccc3)C3OCOC(C3OCc3ccccc3)C2OCc2ccccc2)cc1 (centres undefined)
48.9

====

tested on: MDA-MB-231; experiment: Cytotoxicity against human MDA-MB-231 cells assessed as growth inhibition after 72 hrs by MTT assay; format: functional, cell-based; details: MDA-MB-231, 72 h
MEASUREMENT LABEL: IC50 (µM)
Give just the numeric value; µM need not be written.

Please review the entries below; each comes with its answer.
Consider the molecule shown here: CC(=O)Oc1ccc(COP(=O)(OCc2ccc(OC(C)=O)cc2)OC2C3OCOC(C3OCc3ccccc3)C(OCc3ccccc3)C2OP(=O)(OCc2ccc(OC(C)=O)cc2)OCc2ccc(OC(C)=O)cc2)cc1 (stereo not given) What is its recorded IC50?
0.43

// next record CC(=O)Oc1ccc(COP(=O)(OCc2ccc(OC(C)=O)cc2)OC2C3OC4OC(C3OCc3ccccc3)C(OCc3ccccc3)C2O4)cc1 (stereo not given)
2.77

What would you report for CC(=O)Oc1ccc(COP(=O)(OCc2ccc(OC(C)=O)cc2)OC2C3OCOC2C(OCc2ccccc2)C(OP(=O)(OCc2ccc(OC(C)=O)cc2)OCc2ccc(OC(C)=O)cc2)C3OCc2ccccc2)cc1 (stereo not given) ?
2.37

Follow-up entry: CC(=O)Oc1ccc(COP(=O)(OCc2ccc(OC(C)=O)cc2)OC2C(OCc3ccccc3)C3OCOC(C3OCc3ccccc3)C2OCc2ccccc2)cc1 (stereo not given)
1.58

Request: CC(=O)Oc1ccc(COP(=O)(OCc2ccc(OC(C)=O)cc2)OC2C3OC4OC2C(OP(=O)(OCc2ccc(OC(C)=O)cc2)OCc2ccc(OC(C)=O)cc2)C(O4)C3OP(=O)(OCc2ccc(OC(C)=O)cc2)OCc2ccc(OC(C)=O)cc2)cc1 (stereo not given)
1.89

Next:
Recorded IC50 for CC(=O)Oc1ccc(COP(=O)(OCc2ccc(OC(C)=O)cc2)O[C@@H]2[C@@H](OP(=O)(OCc3ccc(OC(C)=O)cc3)OCc3ccc(OC(C)=O)cc3)[C@H](OCc3ccccc3)[C@@H](OCc3ccccc3)[C@H](OCc3ccccc3)[C@@H]2OP(=O)(OCc2ccc(OC(C)=O)cc2)OCc2ccc(OC(C)=O)cc2)cc1 , please?
3.28

Then what about the molecule CC(=O)Oc1ccc(COP(=O)(OCc2ccc(OC(C)=O)cc2)OC2C3OC4OC(C3OCc3ccccc3)C(O[Si](C)(C)C(C)(C)C)C2O4)cc1 (stereo not given) ?
2.35

One more molecule: CC(=O)Oc1ccc(COP(=O)(OCc2ccc(OC(C)=O)cc2)OC2C3OCOC2C(OP(=O)(OCc2ccc(OC(C)=O)cc2)OCc2ccc(OC(C)=O)cc2)C(OP(=O)(OCc2ccc(OC(C)=O)cc2)OCc2ccc(OC(C)=O)cc2)C3OCc2ccccc2)cc1 (stereo not given)
1.68

Quick one: CC(=O)Oc1ccc(COP(=O)(OCc2ccc(OC(C)=O)cc2)OC2C(OCc3ccccc3)C3OC(C)OC(C3OCc3ccccc3)C2OCc2ccccc2)cc1 (stereo not given)
2.85
